- Test Target: delta opioid receptor (Rattus norvegicus, UniProt P33533)
- Construct: from tissue; host or cells: forebrain of male Wistar rats (Charles River)
- Sequence (P33533 whole entry): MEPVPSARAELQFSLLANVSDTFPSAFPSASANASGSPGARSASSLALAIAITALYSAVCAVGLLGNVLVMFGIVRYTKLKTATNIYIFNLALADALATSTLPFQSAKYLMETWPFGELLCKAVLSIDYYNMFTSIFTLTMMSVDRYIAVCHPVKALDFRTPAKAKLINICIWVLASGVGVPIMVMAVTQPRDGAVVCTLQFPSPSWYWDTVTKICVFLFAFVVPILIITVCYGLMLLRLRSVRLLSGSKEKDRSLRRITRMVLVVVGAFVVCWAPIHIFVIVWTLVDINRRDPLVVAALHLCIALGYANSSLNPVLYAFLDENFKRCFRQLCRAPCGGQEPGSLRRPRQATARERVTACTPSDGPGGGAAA
- Experiment: Rat Brain Delta Opioid Receptor Binding Assay
Test Readout: log10 Ki (log10 of the value in µM)
Base-10 log of Ki, unit µM.

Use these answered entries as a reference point.
Molecule | log10 Ki
CCN(CC)C(=O)c1ccc2c(c1)Oc1ccccc1C2C1CC2CCC(C1)N2CCc1ccccc1 (stereo not shown) [Compound 12a] | -0.70
Oc1cccc2c1Oc1cc(-c3cccnc3)ccc1C2C1CC2CCC(C1)N2Cc1ccccn1 (stereo not shown) [Compound 11k] | -2.52
CC(=O)Nc1ccccc1-c1ccc2c(c1)Oc1ccccc1C2C1CC2CCC(C1)N2 (stereo not shown) [Compound 7b] | -0.37
CCN(CC)C(=O)c1ccc2c(c1)Oc1c(Cl)cccc1C2C1CC2CCC(C1)N2 (stereo not shown) [Compound 6i] | 0.53
c1ccc2c(c1)Oc1cc(-c3ccoc3)ccc1C2C1CC2CCC(C1)N2 (stereo not shown) [Compound 5b] | 0.54
c1ccc2c(c1)Oc1cc(-c3ccncc3)ccc1C2C1CC2CCC(C1)N2 (stereo not shown) [Compound 20b] | -0.71
CC(=O)Nc1ccccc1-c1ccc2c(c1)Oc1c(O)cccc1C2C1CC2CCC(C1)N2Cc1ccccc1 (stereo not shown) [Compound 7l] | -1.66
c1ccc(CN2C3CCC2CC(C2c4ccccc4Oc4cc(-c5nnn[nH]5)ccc42)C3)cc1 (stereo not shown) [Compound 9j] | -0.75

Qu. Determine its reported log10 Ki: CCN(CC)C(=O)c1ccc2c(c1)Oc1ccc(Br)cc1C2C1CC2CCC(C1)N2 (stereo not shown) [Compound 7f]
Ans. -0.76

Qu. Answer with reported log10 Ki of CCN(CC)C(=O)c1ccc2c(c1)Oc1ccccc1C2C1CC2CCC(C1)N2Cc1ccccn1 (stereo not shown) [Compound 15a]
Ans. -1.95

---

- Test Target: delta opioid receptor (Rattus norvegicus, UniProt P33533)
- Construct: from tissue; host or cells: forebrain of male Wistar rats (Charles River)
- Experiment: Rat Brain Delta Opioid Receptor Binding Assay
In this section, each of the compounds is paired with its reported Ki.
Entry rule: numbers only, all in nM.

Compound | Display Unit | Ki
CCN(CC)C(=O)c1ccc2c(c1)Oc1c(OC)cccc1C2C1CC2CCC(C1)N2 (stereo not shown) | nM | 3.1
CCN(CC)C(=O)c1ccc2c(c1)Oc1c(O)cccc1C2C1CC2CCC(C1)N2Cc1ncc[nH]1 (stereo not shown) [Compound 10c] | nM | 0.32
CC(=O)Nc1ccccc1-c1ccc2c(c1)Oc1ccccc1C2C1CC2CCC(C1)N2Cc1ccccn1 (stereo not shown) [Compound 15b] | nM | 102

Qu. For the compound CC(=O)Nc1ccccc1-c1ccc2c(c1)Oc1c(O)cccc1C2C1CC2CCC(C1)N2Cc1cccs1 (stereo not shown) , give its reported Ki.
Ans. 6.51

---

- Test Target: mu opioid receptor (Rattus norvegicus, UniProt P33535)
- Construct: Following incubation with the mu selective peptide ligand, ˜0.8 nM [^3H]DAMGO; from tissue; host or cells: forebrain of male Wistar rats (Charles River)
- Sequence (P33535 whole entry): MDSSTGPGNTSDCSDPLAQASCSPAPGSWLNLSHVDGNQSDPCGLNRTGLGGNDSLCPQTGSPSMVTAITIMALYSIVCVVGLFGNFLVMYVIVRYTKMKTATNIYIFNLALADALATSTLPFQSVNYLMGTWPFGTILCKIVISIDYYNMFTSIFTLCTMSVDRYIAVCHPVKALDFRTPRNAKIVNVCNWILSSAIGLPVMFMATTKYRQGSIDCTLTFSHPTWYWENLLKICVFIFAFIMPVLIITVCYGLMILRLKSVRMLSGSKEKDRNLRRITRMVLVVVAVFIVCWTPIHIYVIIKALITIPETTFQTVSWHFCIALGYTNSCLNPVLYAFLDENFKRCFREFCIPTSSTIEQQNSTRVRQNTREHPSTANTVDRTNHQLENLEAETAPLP
- Experiment: Rat Brain Mu Opioid Receptor Binding Assay
pKi: −log10 of the molar value.
Think of 6 as a floor: if pKi stands on it or above, it is Condition met; beneath it, Condition not met.

// below: answered compounds
Compound | Group Label
CCN(CC)C(=O)c1ccc2c(c1)Oc1ccccc1C2C1CC2CCC(C1)N2Cc1cccs1 (stereo not drawn) [Compound 14a] | Condition not met
CC(=O)Nc1ccccc1-c1ccc2c(c1)Oc1ccccc1C2C1CC2CCC(C1)N2 (stereo not drawn) | Condition not met
c1ccc(CCN2C3CCC2CC(C2c4ccccc4Oc4cc(-c5cccnc5)ccc42)C3)cc1 (stereo not drawn) [Compound 12b] | Condition met

For the next question, use this compound.
Qu. Form field: pKi at least 6? Entry: c1cncc(-c2ccc3c(c2)Oc2ccccc2C3C2CC3CCC(C2)N3Cc2cccs2)c1 (stereo not drawn)
Ans. Condition not met

Data origin, for the record: patent US7589104B2
